All figures here come from patent US20240368223A1.

target: human IgG (Chugai Pharmaceutical Co., Ltd.) (human); assay: SPR, BIAcore T200, IgG immobilised; equilibrium value
Bridges are numbered along the chain shown (N, C = ends). Primed or numbered codes have the meaning given here. The star is where a group is joined. Biotin = O=C1N[C@H]2[C@H](CS[C@H]2CCCCC(=O)*)N1; PEG4′ = amino-PEG4 spacer
metric: pKd
One number for each entry, as −log10 of the molar value.

The binder {Biotin-PEG4′}-GPDCAYHRGELVWCTFH-NH2 (disulfide 4-14) [Type I IgG-binding peptide …-NH2] showed pKd equal to 8.00
